target-desc: EGFR(L858R/T790M) (Homo sapiens, UniProt P00533, L858R/T790M)
Construct: purchased from Carna (GST-a.a. 669-1210)
Sequence (P00533 669-1210 T790M/L858R): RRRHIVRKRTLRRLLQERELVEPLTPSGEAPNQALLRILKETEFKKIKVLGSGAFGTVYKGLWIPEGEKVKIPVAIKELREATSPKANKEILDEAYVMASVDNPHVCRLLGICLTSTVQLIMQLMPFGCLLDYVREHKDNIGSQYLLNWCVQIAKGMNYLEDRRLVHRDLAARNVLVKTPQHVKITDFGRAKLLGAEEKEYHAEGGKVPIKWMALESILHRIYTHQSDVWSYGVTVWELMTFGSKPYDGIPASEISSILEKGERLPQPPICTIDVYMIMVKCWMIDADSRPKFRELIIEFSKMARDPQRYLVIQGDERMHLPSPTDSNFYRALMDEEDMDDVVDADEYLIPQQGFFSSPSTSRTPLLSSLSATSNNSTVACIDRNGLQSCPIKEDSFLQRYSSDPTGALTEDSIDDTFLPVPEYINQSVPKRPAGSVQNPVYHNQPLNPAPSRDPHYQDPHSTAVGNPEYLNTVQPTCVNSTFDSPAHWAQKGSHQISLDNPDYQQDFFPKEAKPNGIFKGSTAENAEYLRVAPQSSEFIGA
measurement-description: EGFR biochemical assay (HTRF), IC50 determinations
study-conditions: EGFR (L858R/T790M) with no pre-incubation; read-out: IC50 (μM) Column A
Reported IC50 is given for each of the following molecules.
recorded-metric: IC50 (µM)

COc1cc(C(=O)Nc2nc3cccc(C)c3n2C2CCCCN(C(=O)/C=C/CN(C)C)C2)ccn1 (centres unmarked)    0.007
Cc1cc(C(=O)Nc2nc3cccc(Cl)c3n2[C@@H]2CCCCN(C(=O)/C=C/CN(C)C(=O)OC(C)(C)C)C2)ccn1    16.1
Cc1cc(C(=O)Nc2nc3cccc(Cl)c3n2[C@@H]2CCCCN(C(=O)/C=C/CN3CC[C@@H](O)C3)C2)ccn1    0.01
Cc1cccc2nc(NC(=O)c3ccnnc3)n([C@@H]3CCCCN(C(=O)/C=C/CN(C)C)C3)c12    0.002
CC#CC(=O)N1CCCCC(n2c(NC(=O)c3cccc(C(F)(F)F)c3)nc3cccc(C)c32)C1 (centres unmarked)    0.33
C=CC(=O)N1CCC[C@H](n2c(NC(=O)c3cccc(C(F)(F)F)c3)nc3cc(C)ccc32)C1    0.41
C=CC(=O)N1CCCC[C@@H](n2c(NC(=O)c3cccc(C(F)(F)F)c3)nc3cccc(C(=O)OC)c32)C1    0.106
Cc1cc(C(=O)Nc2nc3cccc(C(F)(F)F)c3n2[C@@H]2CCCCN(C(=O)/C=C/CN(C)C)C2)ccn1    0.022
C=CC(=O)N1CCCC[C@@H](n2c(NC(=O)c3cc(C)nc(C)c3)nc3cc(CN4CCN(C(C)=O)CC4)cc(C)c32)C1    0.003
CO[C@@H]1CCN(C/C=C/C(=O)N2CCCC[C@@H](n3c(NC(=O)c4ccnc(C)c4)nc4cccc(Cl)c43)C2)C1    0.005
Cc1cccc2nc(NC(=O)c3ccccn3)n(C3CCCCN(C(=O)/C=C/CN(C)C)C3)c12 (centres unmarked)    1.05
C=CC(=O)N1CCCC[C@@H](n2c(NC(=O)c3cnnc(C)c3)nc3cccc(C)c32)C1    0.002

---

target-desc: H3255 (EGFR L858R) (Homo sapiens, UniProt P00533, L858R)
Sequence (P00533 25-1210 L858R): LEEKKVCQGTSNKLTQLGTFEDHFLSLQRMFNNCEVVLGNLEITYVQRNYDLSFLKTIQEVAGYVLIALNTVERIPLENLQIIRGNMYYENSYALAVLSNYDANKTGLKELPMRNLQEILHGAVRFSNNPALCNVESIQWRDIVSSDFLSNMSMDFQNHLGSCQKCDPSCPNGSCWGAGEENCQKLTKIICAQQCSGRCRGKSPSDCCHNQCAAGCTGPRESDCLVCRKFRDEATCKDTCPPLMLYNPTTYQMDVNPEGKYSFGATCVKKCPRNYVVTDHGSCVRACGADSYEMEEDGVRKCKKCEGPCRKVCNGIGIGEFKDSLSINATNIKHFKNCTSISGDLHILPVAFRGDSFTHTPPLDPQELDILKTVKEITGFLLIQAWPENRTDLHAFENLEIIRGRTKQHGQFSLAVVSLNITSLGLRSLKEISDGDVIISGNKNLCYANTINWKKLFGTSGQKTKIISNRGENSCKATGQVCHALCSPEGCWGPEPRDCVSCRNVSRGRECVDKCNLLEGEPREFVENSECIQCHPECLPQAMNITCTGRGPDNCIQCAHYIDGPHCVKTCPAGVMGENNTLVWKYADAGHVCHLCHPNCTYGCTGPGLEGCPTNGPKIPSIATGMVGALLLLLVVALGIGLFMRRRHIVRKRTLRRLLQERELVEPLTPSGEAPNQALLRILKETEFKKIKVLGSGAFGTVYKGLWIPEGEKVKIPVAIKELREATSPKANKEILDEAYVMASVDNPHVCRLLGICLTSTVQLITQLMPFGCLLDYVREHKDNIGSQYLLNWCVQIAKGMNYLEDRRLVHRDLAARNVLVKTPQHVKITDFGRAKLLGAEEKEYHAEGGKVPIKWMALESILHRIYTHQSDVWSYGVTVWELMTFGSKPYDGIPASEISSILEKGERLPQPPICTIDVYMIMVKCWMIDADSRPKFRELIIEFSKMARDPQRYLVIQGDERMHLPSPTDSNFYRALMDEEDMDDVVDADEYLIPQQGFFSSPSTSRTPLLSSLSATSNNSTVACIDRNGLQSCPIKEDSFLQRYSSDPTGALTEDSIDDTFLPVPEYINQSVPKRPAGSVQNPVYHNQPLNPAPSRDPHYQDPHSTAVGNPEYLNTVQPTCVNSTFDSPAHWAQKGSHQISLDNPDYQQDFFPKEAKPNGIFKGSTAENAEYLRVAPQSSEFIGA
measurement-description: EGFR target modulation in H3255 cell line (phospho-EGFR Y1173 ELISA)
pIC50: −log10 of the molar value.
Classification field: enter met for pIC50 values not below 8, not met for values below it.

C=CC(=O)N1CCCC[C@@H](n2c(NC(=O)c3ccnnc3)nc3cccc(OC)c32)C1    not met
Cc1cc(C(=O)Nc2nc3cccc(Cl)c3n2[C@@H]2CCCCN(C(=O)/C=C/CN(C)C)C2)cc(C)n1    not met
C=CC(=O)N1CCCC[C@@H](n2c(NC(=O)c3cnnc(C)c3)nc3cccc(C)c32)C1    met
Cc1cccc2nc(NC(=O)c3ccc(Cl)nc3)n([C@@H]3CCCCN(C(=O)/C=C/CN(C)C)C3)c12    met
C/C=C/C(=O)N1CCCC[C@@H](n2c(NC(=O)c3cc(C)nc(C)c3)nc3cc(CN4CC[C@H](OC)C4)cc(C)c32)C1    not met
C=CC(=O)N1CCN(C(=O)OC(C)(C)C)CC(n2c(NC(=O)c3ccnc(C)c3)nc3cccc(Cl)c32)C1 (centres unmarked)    not met
Cc1cc(C(=O)Nc2nc3cccc(Cl)c3n2[C@@H]2CCCCN(C(=O)/C=C/CN3CCC3)C2)ccn1    not met
Cc1cccc2nc(NC(=O)c3ccnnc3)n([C@@H]3CCCCN(C(=O)/C=C/CN(C)C)C3)c12    met
COc1cccc2nc(NC(=O)c3ccnnc3)n([C@@H]3CCCCN(C(=O)/C=C/CN(C)C)C3)c12    not met
Cc1ncc(C(=O)Nc2nc3cccc(C)c3n2C2CCCCN(C(=O)/C=C/CN(C)C)C2)s1 (single isomer, unassigned)    met

---

target-desc: H3255 (EGFR L858R) (Homo sapiens, UniProt P00533, L858R)
measurement-description: EGFR target modulation in H3255 cell line (phospho-EGFR Y1173 ELISA)
recorded-metric: IC50 (nM)

C/C=C/C(=O)N1CCCC[C@@H](n2c(NC(=O)c3cc(C)nc(C)c3)nc3cc(CN4CC[C@H](F)C4)cc(C)c32)C1    50
C=CC(=O)N1CCN(C(C)=O)CC(n2c(NC(=O)c3ccnc(C)c3)nc3cccc(Cl)c32)C1 (stereo not shown)    71
CN(C)C/C=C/C(=O)N1CCCCC(n2c(NC(=O)c3ccnc(P(C)(C)=O)c3)nc3cccc(Cl)c32)C1 (single isomer, unassigned) [Example 21-10A]    1540
Cc1cc(C(=O)Nc2nc3cccc(C)c3n2[C@@H]2CCCCN(C(=O)/C=C/CN(C)C)C2)cc(Cl)n1    11

---

target-desc: EGFR(L858R/T790M) (Homo sapiens, UniProt P00533, L858R/T790M)
Construct: purchased from Carna (GST-a.a. 669-1210)
measurement-description: EGFR biochemical assay (HTRF), IC50 determinations
study-conditions: EGFR (L858R/T790M) with no pre-incubation; read-out: IC50 (μM) Column A
recorded-metric: IC50 (µM)

C=C(CN(CC)CC)C(=O)N1CCCC[C@@H](n2c(NC(=O)c3ccnnc3)nc3cccc(C)c32)C1 [Example 17-92]    0.213
C=CC(=O)N1CCCC[C@@H](n2c(NC(=O)c3ccccc3)nc3cccc(COCCOC)c32)C1 [Example 17-130]    0.119
C=CC(=O)N1CCC[C@@H](n2c(NC(=O)c3cccc(C(F)(F)F)c3)nc3cc(CO)ccc32)C1 [Example 17-121]    0.127

---

target-desc: human EGFR L858R/T790M (NIH/3T3 cells) (Homo sapiens, UniProt P00533, L858R/T790M)
Sequence (P00533 25-1210 T790M/L858R): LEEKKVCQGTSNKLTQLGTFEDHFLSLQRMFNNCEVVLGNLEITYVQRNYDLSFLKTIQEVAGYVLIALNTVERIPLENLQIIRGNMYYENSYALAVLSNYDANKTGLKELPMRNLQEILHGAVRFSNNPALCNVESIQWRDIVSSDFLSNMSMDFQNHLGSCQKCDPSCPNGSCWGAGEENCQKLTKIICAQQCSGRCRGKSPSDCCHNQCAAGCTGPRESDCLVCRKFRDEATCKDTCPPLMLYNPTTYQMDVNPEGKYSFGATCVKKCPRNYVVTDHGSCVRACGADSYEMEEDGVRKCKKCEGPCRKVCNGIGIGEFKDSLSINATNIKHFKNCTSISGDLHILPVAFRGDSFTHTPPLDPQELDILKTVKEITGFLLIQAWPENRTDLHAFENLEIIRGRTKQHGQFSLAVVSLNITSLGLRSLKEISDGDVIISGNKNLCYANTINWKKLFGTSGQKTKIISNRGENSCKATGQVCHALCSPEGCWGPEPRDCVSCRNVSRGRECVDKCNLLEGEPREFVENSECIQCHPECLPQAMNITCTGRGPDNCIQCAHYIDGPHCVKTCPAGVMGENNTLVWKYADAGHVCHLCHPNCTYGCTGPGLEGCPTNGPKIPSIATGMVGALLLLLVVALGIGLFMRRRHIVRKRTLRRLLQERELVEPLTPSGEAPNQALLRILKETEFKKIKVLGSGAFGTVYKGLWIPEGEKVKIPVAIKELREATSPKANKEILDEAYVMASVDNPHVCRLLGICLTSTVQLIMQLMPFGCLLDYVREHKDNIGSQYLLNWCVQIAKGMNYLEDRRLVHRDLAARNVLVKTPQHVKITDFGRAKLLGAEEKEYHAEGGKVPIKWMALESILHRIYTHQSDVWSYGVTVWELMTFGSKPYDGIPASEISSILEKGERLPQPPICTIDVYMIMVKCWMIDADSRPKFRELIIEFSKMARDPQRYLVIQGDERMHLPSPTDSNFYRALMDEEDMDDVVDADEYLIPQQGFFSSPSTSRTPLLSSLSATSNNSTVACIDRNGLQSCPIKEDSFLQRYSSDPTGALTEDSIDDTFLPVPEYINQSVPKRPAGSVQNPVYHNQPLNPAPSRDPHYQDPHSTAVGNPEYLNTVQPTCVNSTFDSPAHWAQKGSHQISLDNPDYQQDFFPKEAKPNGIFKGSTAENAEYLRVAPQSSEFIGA
measurement-description: EGFR target modulation in engineered NIH/3T3 cell lines (phospho-EGFR Y1068 AlphaLISA), EGFR L858R/T790M
Type: cell-based
study-conditions: engineered NIH/3T3 cells, read-out: NIH3T3 IC50 (μM) EGFR (L858R/T790M)
recorded-metric: IC50 (µM)

CN(C)C/C=C/C(=O)N1CCC[C@@H](n2c(NC(=O)c3cccc(C(F)(F)F)c3)nc3cc(CO)ccc32)C1    0.046
C=CC(=O)N1CCCCC(n2c(NC(=O)c3cccc(C(F)(F)F)c3)nc3cccc(C)c32)C1 (stereo not shown)    0.003
Cc1cccc2nc(NC(=O)c3cnc(Cl)c(Cl)c3)n([C@@H]3CCCCN(C(=O)/C=C/CN(C)C)C3)c12    0.006
C=CC(=O)N1CCC[C@@H](n2c(NC(=O)c3cccc(C(F)(F)F)c3)nc3cc(CN4C[C@@H](O)[C@H](O)C4)ccc32)C1    0.86

---

target-desc: H3255 (EGFR L858R) (Homo sapiens, UniProt P00533, L858R)
measurement-description: EGFR target modulation in H3255 cell line (phospho-EGFR Y1173 ELISA)
Assign labels as follows, please: fulfilled for IC50 below 9 nM; not fulfilled for IC50 equal to or exceeding 9 nM.

Cc1ccccc1-c1cc(C(=O)Nc2nc3cccc(C)c3n2[C@@H]2CCCCN(C(=O)/C=C/CN(C)C)C2)ccn1 [Example 17-80]    fulfilled
Cc1cc(C(=O)Nc2nc3cccc(Cl)c3n2[C@H]2CCCCN(C(=O)/C=C/CN(C)C)C2)cc(C)n1 [Example 17-197]    not fulfilled
Cc1cc(C(=O)Nc2nc3cccc(Cl)c3n2[C@@H]2CCCCN(C(=O)/C=C/CN3CC(O)C3)C2)ccn1 [Example 3-13]    not fulfilled
C=CC(=O)N1CCCC[C@@H](n2c(NC(=O)c3ccnc(C)c3)nc3cc(CN4CC(F)C4)cc(C)c32)C1 [Example 17-152]    fulfilled
C=CC(=O)N1CCCC[C@@H](n2c(NC(=O)c3cccc(F)c3F)nc3cc(CN4CC[C@@H](OC)C4)cc(C)c32)C1 [Example 17-160]    not fulfilled
CO[C@H]1CCN(C/C=C/C(=O)N2CCCC[C@@H](n3c(NC(=O)c4ccnc(C)c4)nc4cccc(Cl)c43)C2)C1 [Example 3-5]    not fulfilled
C=CC(=O)N1CCCC[C@@H](n2c(NC(=O)c3ccnc(C)c3)nc3cc(CN4CC[C@H](F)C4)cc(C)c32)C1 [Example 17-147]    fulfilled
C/C=C/C(=O)N1CCCC[C@@H](n2c(NC(=O)c3ccnc(C)c3)nc3cc(CN4CC[C@@H](OC)C4)cc(C)c32)C1 [Example 17-163]    not fulfilled
C=CC(=O)N1CCCC[C@@H](n2c(NC(=O)c3ccccc3)nc3cccc(CN4CCS(=O)(=O)CC4)c32)C1 [Example 17-132]    not fulfilled
Cc1cccc2nc(NC(=O)c3ccncn3)n(C3CCCCN(C(=O)/C=C/CN(C)C)C3)c12 (centres unmarked) [Example 17-37]    not fulfilled
O=C(Nc1nc2cccc(Cl)c2n1[C@@H]1CCCCN(C(=O)/C=C/CN2CCCC2)C1)c1ccnnc1 [Example 3-8]    not fulfilled
C=CC(=O)N1CCCC[C@@H](n2c(NC(=O)c3cc(C)nc(C)c3)nc3cc(CN4CCN(C(C)=O)CC4)cc(C)c32)C1 [Example 17-181]    fulfilled
Cc1cccc2nc(NC(=O)c3cncc(F)c3)n([C@@H]3CCCCN(C(=O)/C=C/CN(C)C)C3)c12 [Example 17-69]    fulfilled
